# procedure summary: Metabolic stability in mouse liver microsomes assessed as half life at […] measured upto 60 mins in presence of NADPH by HPLC-MS/MS analysis
# Format: ADME, Microsome
endpoint label: half-life (min)

>>> observed_measurement("O=C1CCC(N2C(=O)c3cc(F)c(N4CCC(CCN5CCC(CC(=O)N[C@H]6CC[C@@H](Nc7ncnc8[nH]cc(C(=O)c9ccc(Oc%10ccccc%10)cc9Cl)c78)CC6)CC5)CC4)cc3C2=O)C(=O)N1 (stereo partly specified)")
55.4

1 = O=C1CCC(N2C(=O)c3cccc(NCCOCCOCCOCCOCCOCCNC(=O)N[C@H]4CC[C@@H](Nc5ncnc6[nH]cc(C(=O)c7ccc(Oc8ccccc8)cc7Cl)c56)CC4)c3C2=O)C(=O)N1 (stereo partly specified)
2 = O=C1CCC(N2C(=O)c3ccc(N4CCC(CCN5CCC(CC(=O)N[C@H]6CC[C@@H](Nc7ncnc8[nH]cc(C(=O)c9ccc(Oc%10ccccc%10)cc9Cl)c78)CC6)CC5)CC4)cc3C2=O)C(=O)N1 (stereo partly specified)
3 = O=C1CCC(N2Cc3cc(N4CCC(CCN5CCC(CC(=O)N[C@H]6CC[C@@H](Nc7ncnc8[nH]cc(C(=O)c9ccc(Oc%10ccccc%10)cc9Cl)c78)CC6)CC5)CC4)ccc3C2=O)C(=O)N1 (stereo partly specified)
Q: Place the items in sequence of falling half-life. # format: label list in the order the request specifies
Result: 2, 3, 1
(2: 86 min, 3: 52 min, 1: 1.3 min)
